target: hM1 mAChR (Homo sapiens); construct: expressed in transfected cells; assay: IP1 accumulation assay (ACh concentration-response curves in absence or presence of modulator); assay type: cell-based; settings: 10 μM modulator; FlpIn CHO hM1 cells; mean ± SEM, 3 experiments; read-out: Δbaseline [10 μM]: change in basal response in presence of M1 PAM compared to control curve
Sequence (P11229 whole entry): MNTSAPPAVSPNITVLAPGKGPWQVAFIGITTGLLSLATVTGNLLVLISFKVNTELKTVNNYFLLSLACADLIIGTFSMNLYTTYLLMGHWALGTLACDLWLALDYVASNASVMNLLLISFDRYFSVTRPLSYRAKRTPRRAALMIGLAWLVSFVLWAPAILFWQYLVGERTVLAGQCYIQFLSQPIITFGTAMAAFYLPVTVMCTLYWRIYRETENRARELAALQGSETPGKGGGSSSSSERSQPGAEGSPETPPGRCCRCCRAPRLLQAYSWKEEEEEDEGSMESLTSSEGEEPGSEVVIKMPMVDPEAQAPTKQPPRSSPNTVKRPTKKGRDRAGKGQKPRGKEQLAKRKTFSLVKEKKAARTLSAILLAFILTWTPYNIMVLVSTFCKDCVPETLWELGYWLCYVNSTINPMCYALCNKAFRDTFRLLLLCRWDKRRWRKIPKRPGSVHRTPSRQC
measured_parameter: activation at 10 µM
Write your answer as a measured quantity: the number, then the unit.

activation at 10 µM in this record for Cn1cc(-c2ccc(COc3ccsc3-c3ccn(C4CCCCC4O)c(=O)c3)cc2)cn1 (centres unmarked) [Compound 7h] : 90.3%

GET /value?item= Cn1cc(-c2ccc(COc3ccccc3-c3ccn(C4CCCCC4O)c(=O)c3)cc2)cn1 (centres unmarked) [Compound 1] &field=activation at 10 µM returns 58.3%

So for O=c1cc(-c2ccccc2OCc2ccc(-n3cccn3)cc2)ncn1C1CCCCC1O (centres unmarked) [Compound 27c] , the logged activation at 10 µM turned out to be 100%

Recorded result, COc1cccc(OCc2ccc(-c3cnn(C)c3)cc2)c1-c1cc(=O)n([C@H]2CCCC[C@@H]2O)cn1 (racemic) [Compound 26c] , activation at 10 µM: 5.99%

Entry Cn1cc(-c2ccc(COc3cnccc3-c3ccn(C4CCCCC4O)c(=O)c3)cc2)cn1 (centres unmarked) [Compound 7e] — recorded activation at 10 µM = 79.4%

Please fill in: activation at 10 µM reported for Cn1cc(-c2ccc(COc3cccc(O)c3-c3ccn(C4CCCCC4O)c(=O)c3)cc2)cn1 (centres unmarked) [Compound 7g] = 45.8%

Measured activation at 10 µM of Cn1cc(-c2ccc(COc3cccc(O)c3-c3cc(=O)n(C4CCCCC4O)cn3)cc2)cn1 (centres unmarked) [Compound 26d] : 100%

The value of activation at 10 µM measured for the compound Cn1cc(-c2ccc(COc3ccsc3-c3cc(=O)n(C4CCCCC4O)cn3)cc2)cn1 (centres unmarked) [Compound 26b] turned out to be 100%

====

biological target: M1 mAChR (Homo sapiens); construct: expressed in transfected cells; host or cells: parental FlpIn CHO cells (transient, PEI); assay: β-arrestin 2 recruitment assay (BRET); type: cell-based; conditions: antilog, in parentheses
Sequence (P11229 whole entry): as above
measured_parameter: τB (intrinsic efficacy of the modulator)
Returns: the value as a bare number; no unit string appended.

# τB (intrinsic efficacy of the modulator) of COc1ccc(Cn2cc(C(=O)O)c(=O)c3ccccc32)cc1 [BQCA, reference compound] = 1

Entry Cn1cc(-c2ccc(COc3ncccc3-c3cc(=O)n(C4CCCCC4O)cn3)cc2)cn1 (centres unmarked) [Compound 26a] ; τB (intrinsic efficacy of the modulator) = 2

O=c1cc(-c2ccccc2OCc2ccc(-n3cccn3)nc2)ncn1C1CCCCC1O (centres unmarked) [Compound 27b] yielded τB (intrinsic efficacy of the modulator) of 0.4

// τB (intrinsic efficacy of the modulator) value for Cn1cc(-c2ccc(COc3ncccc3-c3ccn(C4CCCCC4O)c(=O)c3)cc2)cn1 (centres unmarked) : 2

τB (intrinsic efficacy of the modulator) reading for CN(C)C(=O)Cn1ccc(-c2ccccc2OCc2ccc(-c3cnn(C)c3)cc2)cc1=O [Compound 13c] : 1

// τB (intrinsic efficacy of the modulator) lookup, compound = Cn1cc(-c2ccc(COc3ccsc3-c3ccn(C4CCCCC4O)c(=O)c3)cc2)cn1 (centres unmarked) , result: 1

The compound identified as Cn1cc(-c2ccc(COc3ccccc3-c3ccn(C4CCCCC4O)c(=O)c3)cc2)cn1 (centres unmarked) registered its τB (intrinsic efficacy of the modulator) at 1

τB (intrinsic efficacy of the modulator) for Cn1cc(-c2ccc(COc3ccccc3-c3cc(=O)n(C4CCCCC4O)cn3)cc2)cn1 (centres unmarked) is 2
